Data provenance: paper PMC9869995

Quantity: melting point

Take a look at these entries with their results.
{"Compound": "COc1ccc2ccc3c(c2c1)C(c1cccc(Br)c1)C(C#N)=C(N)O3 (stereo not drawn)", "Assay Result": "263 to 265 °C"}
{"Compound": "COc1ccc2ccc3c(c2c1)C(c1ccc(OC)c(OC)c1)C(C#N)=C(N)O3 (stereo not drawn)", "Assay Result": "253 to 255 °C"}
{"Compound": "COc1ccc2ccc3c(c2c1)C(c1ccc(Br)cc1)C(C#N)=C(N)O3 (stereo not drawn)", "Assay Result": "252 to 253 °C"}
{"Compound": "COc1ccc2ccc3c(c2c1)C(c1ccc(C(F)(F)F)cc1F)C(C#N)=C(N)O3 (stereo not drawn)", "Assay Result": "237 to 239 °C"}

Provide the reported melting point of each entry below, same order.
1. COc1ccc2ccc3c(c2c1)C(c1cc(Br)ccc1Br)C(C#N)=C(N)O3 (stereo not drawn)
2. COc1ccc2ccc3c(c2c1)C(c1ccccc1Br)C(C#N)=C(N)O3 (stereo not drawn)
3. COc1ccc2ccc3c(c2c1)C(c1cc(Br)cc(Br)c1OC)C(C#N)=C(N)O3 (stereo not drawn)
4. COc1ccc2ccc3c(c2c1)C(c1ccc(Cl)cc1Cl)C(C#N)=C(N)O3 (stereo not drawn)

-- reply
1. 260 to 262 °C
2. 273 to 275 °C
3. 263 to 264 °C
4. 261 to 262 °C

-- ask Quick check: melting point of COc1ccc2ccc3c(c2c1)C(c1ccc(Cl)c(Cl)c1)C(C#N)=C(N)O3 (stereo not drawn) ?
-- reply 255 to 256 °C

* * *

Target: P-gp (Homo sapiens, UniProt P08183)
Construct: endogenous in cells
Sequence (P08183 whole entry): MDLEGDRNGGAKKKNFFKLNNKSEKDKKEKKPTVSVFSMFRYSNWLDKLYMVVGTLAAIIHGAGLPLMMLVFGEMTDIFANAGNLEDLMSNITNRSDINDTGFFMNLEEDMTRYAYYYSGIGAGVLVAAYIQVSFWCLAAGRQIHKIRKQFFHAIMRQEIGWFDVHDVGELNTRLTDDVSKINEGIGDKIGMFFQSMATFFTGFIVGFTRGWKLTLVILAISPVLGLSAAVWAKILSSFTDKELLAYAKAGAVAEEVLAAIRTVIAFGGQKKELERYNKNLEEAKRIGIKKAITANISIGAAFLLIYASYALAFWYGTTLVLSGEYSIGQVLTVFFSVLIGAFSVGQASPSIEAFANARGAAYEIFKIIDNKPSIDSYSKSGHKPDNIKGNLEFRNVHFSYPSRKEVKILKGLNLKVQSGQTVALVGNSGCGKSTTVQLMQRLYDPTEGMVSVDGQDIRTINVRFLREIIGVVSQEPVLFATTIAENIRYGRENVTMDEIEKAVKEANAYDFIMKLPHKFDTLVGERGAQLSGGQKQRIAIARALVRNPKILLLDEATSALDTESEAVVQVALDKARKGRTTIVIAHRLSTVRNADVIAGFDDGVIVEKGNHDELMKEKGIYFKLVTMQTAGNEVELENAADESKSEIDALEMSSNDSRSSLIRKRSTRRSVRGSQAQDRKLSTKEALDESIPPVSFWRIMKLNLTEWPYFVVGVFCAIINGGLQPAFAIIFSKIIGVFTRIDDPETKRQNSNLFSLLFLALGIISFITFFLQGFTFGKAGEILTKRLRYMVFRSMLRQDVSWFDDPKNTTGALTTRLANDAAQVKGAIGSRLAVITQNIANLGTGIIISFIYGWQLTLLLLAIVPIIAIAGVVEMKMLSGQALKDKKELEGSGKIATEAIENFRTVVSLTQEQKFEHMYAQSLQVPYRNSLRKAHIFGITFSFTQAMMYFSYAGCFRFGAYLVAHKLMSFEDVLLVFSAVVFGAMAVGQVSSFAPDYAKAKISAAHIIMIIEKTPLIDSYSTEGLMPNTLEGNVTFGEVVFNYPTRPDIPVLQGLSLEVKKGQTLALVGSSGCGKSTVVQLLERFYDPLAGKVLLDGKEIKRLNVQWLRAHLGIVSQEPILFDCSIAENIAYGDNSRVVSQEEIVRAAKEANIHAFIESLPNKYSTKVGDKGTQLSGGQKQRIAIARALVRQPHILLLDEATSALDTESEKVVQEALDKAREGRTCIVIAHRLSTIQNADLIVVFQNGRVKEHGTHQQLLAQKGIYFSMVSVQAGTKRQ
Test: Rhodamine 123 accumulation assay in MCF-7/ADR cells
Reported Conditions: 4 h compound, then 5.25 μM Rho123 30 min
Protocol: Furthermore, the reversion of P-gp mediated multidrug resistance may be achieved by down-regulation of P-gp expression and or inhibition of P-gp efflux function. Briefly, resistant cancer cells were harvested, washed twice, and counted. […] of each well was measured using Spectramax Gemini fluorescence microplate reader (Molecular Devices, Sunnyvale, CA). The total content of Rhodamine in each sample was determined by comparison with a Rhodamine standard curve.
Strictly below 20 µM in IC50: class 1. Otherwise: class 0.

-- ask Confirm or reject: IC50 of COc1ccc2ccc3c(c2c1)C(c1ccc(Cl)cc1)C(C#N)=C(N)O3 (stereo not drawn) [4d] lies strictly below 20 µM
-- reply class 1

-- ask Confirm or reject: IC50 of COc1ccc2ccc3c(c2c1)C(c1ccc(OC)c(OC)c1)C(C#N)=C(N)O3 (stereo not drawn) [4w] lies strictly below 20 µM
-- reply class 0

-- ask Confirm or reject: IC50 of COc1ccc2ccc3c(c2c1)C(c1ccc(Cl)c(Cl)c1)C(C#N)=C(N)O3 (stereo not drawn) [4q] lies strictly below 20 µM
-- reply class 0

-- ask Confirm or reject: IC50 of COc1ccc2ccc3c(c2c1)C(c1ccc(F)cc1F)C(C#N)=C(N)O3 (stereo not drawn) [4k] lies strictly below 20 µM
-- reply class 0

-- ask Confirm or reject: IC50 of COc1ccc2ccc3c(c2c1)C(c1cccc(Cl)c1)C(C#N)=C(N)O3 (stereo not drawn) [4c] lies strictly below 20 µM
-- reply class 0

* * *

Please respond with reported melting point for every item in the list.

{"Molecule": "COc1ccc2ccc3c(c2c1)C(c1c(F)cccc1F)C(C#N)=C(N)O3 (centres unmarked)", "Assay Result": "305 to 306 °C"}
{"Molecule": "COc1ccc(C2C(C#N)=C(N)Oc3ccc4ccc(OC)cc4c32)c(OC)c1 (centres unmarked)", "Assay Result": "218 to 220 °C"}
{"Molecule": "COc1ccc2ccc3c(c2c1)C(c1ccc(Cl)cc1)C(C#N)=C(N)O3 (centres unmarked)", "Assay Result": "257 to 258 °C"}
{"Molecule": "COc1ccc2ccc3c(c2c1)C(c1ccccc1Cl)C(C#N)=C(N)O3 (centres unmarked)", "Assay Result": "266 to 267 °C"}
{"Molecule": "COc1ccc2ccc3c(c2c1)C(c1ccc(C)cc1)C(C#N)=C(N)O3 (centres unmarked)", "Assay Result": "245 to 246 °C"}
{"Molecule": "COc1ccc2ccc3c(c2c1)C(c1c(F)cccc1Cl)C(C#N)=C(N)O3 (centres unmarked)", "Assay Result": "292 to 294 °C"}
{"Molecule": "COc1ccc2ccc3c(c2c1)C(c1cccc(Cl)c1Cl)C(C#N)=C(N)O3 (centres unmarked)", "Assay Result": "310 to 311 °C"}

Please examine the following record next.
-- ask Quick check: melting point of COc1ccc2ccc3c(c2c1)C(c1ccc(F)cc1)C(C#N)=C(N)O3 (centres unmarked) ?
-- reply 267 to 268 °C

* * *

Tested on: HCT-116
Test: MTT cell viability assay, HCT-116
Format: cell-based
Reported Conditions: Homo sapiens, 24 h incubation, mean ± standard error
Please respond with reported IC50 for every item in the list.
Give bare numbers, in µM.

{"Molecule": "COc1ccc2ccc3c(c2c1)C(c1cc(Br)ccc1Br)C(C#N)=C(N)O3 (stereo not drawn)", "Quantity": "IC50", "Assay Result": 5.3}
{"Molecule": "COc1ccc2ccc3c(c2c1)C(c1ccc(F)cc1F)C(C#N)=C(N)O3 (stereo not drawn)", "Quantity": "IC50", "Assay Result": 4.1}
{"Molecule": "COc1ccc2ccc3c(c2c1)C(c1ccc(F)cc1)C(C#N)=C(N)O3 (stereo not drawn)", "Quantity": "IC50", "Assay Result": 6.4}
{"Molecule": "COc1ccc2ccc3c(c2c1)C(c1ccc(Br)cc1)C(C#N)=C(N)O3 (stereo not drawn)", "Quantity": "IC50", "Assay Result": 2.2}
{"Molecule": "COc1ccc2ccc3c(c2c1)C(c1ccc(Cl)cc1Cl)C(C#N)=C(N)O3 (stereo not drawn)", "Quantity": "IC50", "Assay Result": 1.7}
{"Molecule": "COc1ccc2ccc3c(c2c1)C(c1cc(Br)cc(Br)c1)C(C#N)=C(N)O3 (stereo not drawn)", "Quantity": "IC50", "Assay Result": 15}

Provide the reported IC50 of each entry below, same order.
1. COc1ccc(C2C(C#N)=C(N)Oc3ccc4ccc(OC)cc4c32)c(OC)c1 (stereo not drawn)
2. COc1ccc2ccc3c(c2c1)C(c1ccc(C)cc1)C(C#N)=C(N)O3 (stereo not drawn)
3. COc1ccc2ccc3c(c2c1)C(c1ccc(Cl)c(Cl)c1)C(C#N)=C(N)O3 (stereo not drawn)
4. COc1ccc2ccc3c(c2c1)C(c1c(Cl)cccc1Cl)C(C#N)=C(N)O3 (stereo not drawn)

-- reply
[49.9, 2.9, 1.3, 18.9]

Provide the reported IC50 of each entry below, same order.
1. COc1ccc2ccc3c(c2c1)C(c1c(F)cccc1F)C(C#N)=C(N)O3 (stereo not drawn)
2. COc1ccc2ccc3c(c2c1)C(c1cccc(Cl)c1Cl)C(C#N)=C(N)O3 (stereo not drawn)
3. COc1cccc2c1C(=O)c1c(O)c3c(c(O)c1C2=O)C[C@@](O)(C(=O)CO)C[C@@H]3O[C@H]1C[C@H](N)[C@H](O)[C@H](C)O1 [Doxorubicin, reference compound]
4. COc1ccc2ccc3c(c2c1)C(c1cc(Cl)ccc1Cl)C(C#N)=C(N)O3 (stereo not drawn)
5. COc1ccc2ccc3c(c2c1)C(c1ccc(OC)c(OC)c1)C(C#N)=C(N)O3 (stereo not drawn)
6. COc1ccc2ccc3c(c2c1)C(c1ccc(OC)c(OC)c1OC)C(C#N)=C(N)O3 (stereo not drawn)

-- reply
1. 77.7
2. 42
3. 0.9
4. 8.3
5. 6.2
6. 36.6

Provide the reported IC50 of each entry below, same order.
1. COc1ccc2ccc3c(c2c1)C(c1ccc(C(F)(F)F)cc1)C(C#N)=C(N)O3 (stereo not drawn)
2. COc1ccc2ccc3c(c2c1)C(c1cc(OC)c(OC)c(OC)c1)C(C#N)=C(N)O3 (stereo not drawn)

-- reply
1: 20.2; 2: 15.4

* * *

Test system: P-gp
Test: P-gp content in MCF-7/ADR cell lysate by ELISA
Format: cell-based, human
Reported Conditions: human, MCF-7/ADR cells (cell lysate), MCF-7/ADR lysate
Please respond with reported IC50 at 48 h for every item in the list.
Give bare numbers, in µM.

{"Molecule": "COc1cccc2c1C(=O)c1c(O)c3c(c(O)c1C2=O)C[C@@](O)(C(=O)CO)C[C@@H]3O[C@H]1C[C@H](N)[C@H](O)[C@H](C)O1 [Doxorubicin, reference compound]", "Scale Unit": "µM", "IC50 at 48 h": 50.9}
{"Molecule": "COc1ccc2ccc3c(c2c1)C(c1ccc(F)cc1F)C(C#N)=C(N)O3 (stereo not shown)", "Scale Unit": "µM", "IC50 at 48 h": 61.4}
{"Molecule": "COc1ccc2ccc3c(c2c1)C(c1ccc(Cl)c(Cl)c1)C(C#N)=C(N)O3 (stereo not shown)", "Scale Unit": "µM", "IC50 at 48 h": 45.3}

Please examine the following record next.
-- ask Quick check: IC50 at 48 h of COc1ccc2ccc3c(c2c1)C(c1ccc(Cl)cc1)C(C#N)=C(N)O3 (stereo not shown) ?
-- reply 13.5
